// provenance: ChEMBL document CHEMBL6071131

TARGET DESC: 5'-AMP-activated protein kinase catalytic subunit alpha-1 (Homo sapiens) (UniProt Q13131)
Sequence (Q13131 whole entry, looked up): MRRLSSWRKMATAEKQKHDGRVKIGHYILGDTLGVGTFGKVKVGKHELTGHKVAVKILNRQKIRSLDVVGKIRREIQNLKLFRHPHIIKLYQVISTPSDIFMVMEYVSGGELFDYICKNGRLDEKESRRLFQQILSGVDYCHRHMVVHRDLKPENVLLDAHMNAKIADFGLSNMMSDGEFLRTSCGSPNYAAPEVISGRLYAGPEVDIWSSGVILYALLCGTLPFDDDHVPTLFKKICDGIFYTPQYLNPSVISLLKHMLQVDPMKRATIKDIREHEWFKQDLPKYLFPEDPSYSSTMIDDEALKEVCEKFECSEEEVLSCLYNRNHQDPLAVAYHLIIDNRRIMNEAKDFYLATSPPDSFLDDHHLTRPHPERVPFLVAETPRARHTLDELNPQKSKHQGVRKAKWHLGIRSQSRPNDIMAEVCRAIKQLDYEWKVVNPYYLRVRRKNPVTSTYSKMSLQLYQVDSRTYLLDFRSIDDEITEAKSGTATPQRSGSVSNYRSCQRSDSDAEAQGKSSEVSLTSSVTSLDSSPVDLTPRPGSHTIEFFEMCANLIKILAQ
PROCEDURE SUMMARY: Inhibition of human AMPK alpha-1 assessed as residual activity at 5 uM relative to control
EXPERIMENTAL ENDPOINT: Activity (%)
Supply the numeric figure in %, leaving out any unit text.

Example entries and their recorded answers appear below.
Cc1ccc(S(=O)(=O)N2CC(CCn3cnc4c(Br)ncnc43)Oc3cc(Cl)ccc32)cc1 (stereo not given)	90
Cc1ccc(S(=O)(=O)N2CC(CCn3cnc4c(Cl)nc(Cl)nc43)Oc3ccc(C)cc32)cc1 (stereo not given)	93
Cc1ccc(S(=O)(=O)N2CC(CCn3cnc4c(Cl)nc(Cl)nc43)Oc3cc(Cl)ccc32)cc1 (stereo not given)	87
Cc1ccc(S(=O)(=O)N2CC(CCn3cnc4c(Cl)nc(Cl)nc43)Oc3ccc(Br)cc32)cc1 (stereo not given)	86

State, for 5'-AMP-activated protein kinase catalytic subunit alpha-1 (Homo sapiens) (UniProt Q13131), measured Activity of the molecule listed here: Cc1ccc(S(=O)(=O)N2CC(CCn3cnc4c(Br)ncnc43)Oc3ccc(C)cc32)cc1 (stereo not given)
90

---

TARGET DESC: Epidermal growth factor receptor (Homo sapiens)
PROCEDURE SUMMARY: Inhibition of human EGFR assessed as residual activity at 5 uM relative to control
EXPERIMENTAL ENDPOINT: Activity (%)
// return numeric value only (unit: %, not printed)

For Epidermal growth factor receptor (Homo sapiens), give the measured Activity of the entry Cc1ccc(S(=O)(=O)N2CC(CCn3cnc4c(Cl)nc(Cl)nc43)Oc3ccc(Br)cc32)cc1 (stereo not given)
94

// output Activity; input Cc1ccc(S(=O)(=O)N2CC(CCn3cnc4c(Cl)nc(Cl)nc43)Oc3cc(Cl)ccc32)cc1 (stereo not given) ; system Epidermal growth factor receptor (Homo sapiens)
74

Under Epidermal growth factor receptor (Homo sapiens): report Activity of Cc1ccc(S(=O)(=O)N2CC(CCn3cnc4c(Br)ncnc43)Oc3ccc(C)cc32)cc1 (stereo not given) .
97

// fetch Activity for Cc1ccc(S(=O)(=O)N2CC(CCn3cnc4c(Br)ncnc43)Oc3cc(Cl)ccc32)cc1 (stereo not given) ; system: Epidermal growth factor receptor (Homo sapiens)
108

Please report the measured Activity for Cc1ccc(S(=O)(=O)N2CC(CCn3cnc4c(Cl)nc(Cl)nc43)Oc3ccc(C)cc32)cc1 (stereo not given) tested on Epidermal growth factor receptor (Homo sapiens).
96

---

TARGET DESC: Mitogen-activated protein kinase 14 (Homo sapiens) (UniProt Q16539)
Sequence (Q16539 whole entry): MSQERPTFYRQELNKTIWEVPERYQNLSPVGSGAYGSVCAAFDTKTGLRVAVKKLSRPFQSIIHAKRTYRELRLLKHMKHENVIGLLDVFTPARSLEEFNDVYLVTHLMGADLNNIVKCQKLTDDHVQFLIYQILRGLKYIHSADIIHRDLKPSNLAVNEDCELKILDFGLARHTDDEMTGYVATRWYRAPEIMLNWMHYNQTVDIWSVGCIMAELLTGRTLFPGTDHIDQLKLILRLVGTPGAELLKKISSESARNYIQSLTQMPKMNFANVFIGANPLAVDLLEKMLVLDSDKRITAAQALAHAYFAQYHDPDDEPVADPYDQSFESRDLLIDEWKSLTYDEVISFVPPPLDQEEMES
PROCEDURE SUMMARY: Inhibition of human P38-alpha assessed as residual activity at 50 uM relative to control
Field: label. Allowed values: true (Activity < 80%) or false (Activity >= 80%).

Cc1ccc(S(=O)(=O)N2CC(CCn3cnc4c(Br)ncnc43)Oc3ccc(C)cc32)cc1 (stereo not given)	true
Cc1ccc(S(=O)(=O)N2CC(CCn3cnc4c(Cl)nc(Cl)nc43)Oc3ccc(Br)cc32)cc1 (stereo not given)	true
Cc1ccc(S(=O)(=O)N2CC(CCn3cnc4c(Br)ncnc43)Oc3cc(Cl)ccc32)cc1 (stereo not given)	false

Now look at this one.
State whether 80% exceeds Activity recorded for Cc1ccc(S(=O)(=O)N2CC(CCn3cnc4c(Cl)nc(Cl)nc43)Oc3cc(Cl)ccc32)cc1 (stereo not given) .
true

---

TARGET DESC: Mitogen-activated protein kinase 8 (Homo sapiens) (UniProt P45983)
Sequence (P45983 whole entry): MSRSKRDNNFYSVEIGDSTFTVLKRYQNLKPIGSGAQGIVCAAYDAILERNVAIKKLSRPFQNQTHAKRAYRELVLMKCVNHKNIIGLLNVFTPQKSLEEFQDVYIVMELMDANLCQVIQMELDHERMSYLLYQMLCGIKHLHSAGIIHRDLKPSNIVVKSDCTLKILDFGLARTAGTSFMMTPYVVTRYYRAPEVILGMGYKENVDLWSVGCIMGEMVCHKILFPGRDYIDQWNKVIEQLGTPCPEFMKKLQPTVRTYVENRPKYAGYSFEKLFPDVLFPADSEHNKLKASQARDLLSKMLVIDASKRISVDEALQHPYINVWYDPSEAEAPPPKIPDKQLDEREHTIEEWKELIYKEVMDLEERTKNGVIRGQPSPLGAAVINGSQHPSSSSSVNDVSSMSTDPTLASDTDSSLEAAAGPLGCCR
PROCEDURE SUMMARY: Inhibition of human JNK1 assessed as residual activity at 50 uM relative to control
EXPERIMENTAL ENDPOINT: Activity (%)
Express the result in % but write the number alone.

Below are worked cases with known answers.
Cc1ccc(S(=O)(=O)N2CC(CCn3cnc4c(Br)ncnc43)Oc3ccc(C)cc32)cc1 (stereo not given)	52
Cc1ccc(S(=O)(=O)N2CC(CCn3cnc4c(Cl)nc(Cl)nc43)Oc3ccc(Br)cc32)cc1 (stereo not given)	44
Cc1ccc(S(=O)(=O)N2CC(CCn3cnc4c(Br)ncnc43)Oc3cc(Cl)ccc32)cc1 (stereo not given)	47
Cc1ccc(S(=O)(=O)N2CC(CCn3cnc4c(Cl)nc(Cl)nc43)Oc3cc(Cl)ccc32)cc1 (stereo not given)	67

The record that follows has no Activity shown yet.
Quote Activity reported for Cc1ccc(S(=O)(=O)N2CC(CCn3cnc4c(Cl)nc(Cl)nc43)Oc3ccc(C)cc32)cc1 (stereo not given) please.
56
